System: Vero E6 infected with SARS-CoV-2
Test: inhibition of SARS-CoV-2 cytopathic effect; higher = more antiviral protection, active = above 15
Settings: 10000 nM; 48 h
Write down the outcome that applies. Available outcomes: active, inactive

Could you kindly confirm the outcome this assay logged for C[C@]12CC[C@@H]3c4ccc(O)cc4CC[C@H]3[C@@H]1CC[C@@H]2O ?
inactive

Could you kindly confirm the outcome this assay logged for CCN(CC)CC1CCN(c2ncc3ncnc(Nc4ccc(F)c(Cl)c4)c3n2)CC1 ?
active

Could you kindly confirm the outcome this assay logged for Cc1ccccc1NC(=N)Nc1ccccc1C ?
inactive

Could you kindly confirm the outcome this assay logged for CCCC(C)NC(=O)c1ccc(Cl)c(Cl)c1 (centres undefined) ?
inactive

Could you kindly confirm the outcome this assay logged for O=C1c2ccccc2-c2c(NCCc3ccccc3)c(=O)[nH]c3cccc1c23 ?
inactive

* * *

Exercise: state measured inhibition of SARS-CoV-2 cytopathic effect for each of the compounds provided.
Tested on: Vero E6 infected with SARS-CoV-2
Test: inhibition of SARS-CoV-2 cytopathic effect; higher = more antiviral protection, active = above 15
Conditions: 1 nM; 48 h
Give bare numbers, in %.

Compound	Endpoint result
CCOC(=O)CSCCC1NC(C(=O)O)CS1 (centres undefined) [letosteine]	-0.45

Provide inhibition of SARS-CoV-2 cytopathic effect for all items below, preserving their order.
1. C[C@@H]1COC(Nc2ccc3ncnc(Nc4ccc(OCc5nccs5)c(Cl)c4)c3c2)=N1
2. COc1c(C)cnc(Cn2cnc3c(Cl)nc(N)nc32)c1C
3. O=C(N/N=C/c1ccc([N+](=O)[O-])o1)c1cc([N+](=O)[O-])cc([N+](=O)[O-])c1O [nifursol]
4. Cc1ccccc1-c1cc(N2CCN(C)CC2)ncc1N(C)C(=O)C(C)(C)c1cc(C(F)(F)F)cc(C(F)(F)F)c1 [netupitant]
5. CCOC(=O)Nc1ccc(NCc2c(C)cc(C)cc2C)cc1N
6. CN1C(=O)CN=C(c2ccccc2)c2cc(Cl)ccc21 [diazepam]
7. CCc1cc2c(c(CC)n1)CCC(=O)N2Cc1ccc(-c2ccccc2-c2nnn[nH]2)cc1
8. O=C(O)CCc1c(C(=O)O)[nH]c2cc(Cl)cc(Cl)c12

[2.68, -0.38, 0.19, 0.76, 0.63, -0.19, -4.46, 0.7]

Provide inhibition of SARS-CoV-2 cytopathic effect for all items below, preserving their order.
1. CN(C)c1ccc2c(c1)Sc1cc(N(C)C)ccc1N2 [leucomethylene-blue]
2. C1COC(NC(C2CC2)C2CC2)=N1 [rilmenidine]
3. O=C(O)C1=CCCNC1 [guvacine]

[2.22, 2.93, 2]

* * *

Test system: Vero E6 infected with SARS-CoV-2
Experiment: inhibition of SARS-CoV-2 cytopathic effect; higher = more antiviral protection, active = above 15
Conditions: 833.33 nM; 48 h
Exercise: state measured inhibition of SARS-CoV-2 cytopathic effect for each of the compounds provided.

CS(=O)(=O)c1ccc(-c2cnc(NCc3ccco3)n3cnnc23)cc1 -0.76% (inactive)
CCCC(=O)Nc1cccc(NC(=O)c2ccccc2Br)c1 -1.59% (inactive)

Please report inhibition of SARS-CoV-2 cytopathic effect for the following compound: CN1CCC(NC(=O)c2cc(-c3c(O)cc(O)cc3Oc3ccc([N+](=O)[O-])cc3)on2)CC1
-1.5% (inactive)

* * *

Test system: Vero E6 infected with SARS-CoV-2
Test: inhibition of SARS-CoV-2 cytopathic effect; higher = more antiviral protection, active = above 15
Conditions: 100 nM; 48 h
Parameter measured: inhibition of SARS-CoV-2 cytopathic effect (%)
Give bare numbers, in %.

Illustrative cases are given below, each with its answer.
Compound	Target	Endpoint result
Cc1cc(OCC(=O)O)cc(C)c1Cc1ccc(O)c(C(C)C)c1	Vero E6 infected with SARS-CoV-2	-3.41
C[C@H]1CN(C[C@H](Cc2ccccc2)C(=O)NCC(=O)O)CC[C@@]1(C)c1cccc(O)c1	Vero E6 infected with SARS-CoV-2	3.04
CNCC[C@@H](Oc1ccccc1C)c1ccccc1	Vero E6 infected with SARS-CoV-2	3.37
O=C(O)CCC(=O)OC[C@@H](NC(=O)C(Cl)Cl)[C@H](O)c1ccc([N+](=O)[O-])cc1 [chloramphenicol-sodium-succinate]	Vero E6 infected with SARS-CoV-2	2.32
CCOC(=O)c1c(/C(C#N)=C\N)c2ccc(Cl)c(Cl)c2n1C	Vero E6 infected with SARS-CoV-2	0.36
CC1=CC(=C(c2ccc(N)cc2)c2ccc(N)cc2)C=CC1=N	Vero E6 infected with SARS-CoV-2	1.45

Provide inhibition of SARS-CoV-2 cytopathic effect for all items below, preserving their order.
1. CCn1c(-c2nonc2N)nc2cnc(Oc3cccc(NC(=O)c4ccc(OCCN5CCOCC5)cc4)c3)cc21
2. CO/N=C(\C(=O)N[C@@H]1C(=O)N2C(C(=O)O)=C(CSC(=O)c3ccco3)CS[C@H]12)c1csc(N)n1
3. C[C@@H](c1ccc2nccn2c1)n1nnc2ncc(-c3cnn(C)c3)nc21
4. CCCCCCCCCCCCCCCCCCN(CCCCCCCCCCCCCCCCCC)CCCN(CCO)CCO
5. CN(C)CCCNC(=O)c1ccc(-c2cc(O)c3ncccc3c2)cc1

1. -2.86
2. -1.18
3. -0.3
4. -5.76
5. 1.01

Provide inhibition of SARS-CoV-2 cytopathic effect for all items below, preserving their order.
1. Nc1ccc2ncnc(NCCc3ccc(Oc4ccccc4)cc3)c2c1
2. CC(C)(C)c1ccc(/C=C/C(=O)Nc2ccc3c(c2)OCCO3)cc1
3. CCN1C[C@]2(COC(=O)c3ccccc3N3C(=O)C[C@H](C)C3=O)CC[C@H](OC)[C@@]34[C@@H]5C[C@H]6[C@H](OC)[C@@H]5[C@](O)(C[C@@H]6OC)[C@](O)([C@@H](OC)[C@H]23)[C@@H]14
4. O=C(Nc1ccccc1)[C@]12C[C@H]1/C(=N\O)c1ccccc1O2

1. -1.53
2. 1.24
3. 0.85
4. -0.61

* * *

Tested on: Vero E6 infected with SARS-CoV-2
Experiment: morphology score (similarity to uninfected cells); higher = more like uninfected cells
Conditions: 24 h
Parameter measured: morphology score

Illustrative cases are given below, each with its answer.
Compound	Endpoint result
O=C1COc2nccc(-c3ccccc3F)c2CN1Cc1cc(C(F)(F)F)cc(C(F)(F)F)c1 (10 µM)	-0.194
COc1ccc(CCN)cc1OC [homoveratrylamine] (10 µM)	-0.0152
CC1(C)CC(=O)c2c(C(F)(F)F)nn(-c3ccc(C(N)=O)c(N[C@H]4CC[C@H](O)CC4)c3)c2C1 (10 µM)	0.196
O=C(NCc1ccc(F)cc1)N1CCN2C(=O)OC(c3ccccc3)(c3ccccc3)[C@@H]2C1 (racemic) (10 µM)	0.069
COc1cccc2c1C(=O)c1c(O)c3c(c(O)c1C2=O)C[C@@](O)(C(C)=O)C[C@@H]3O[C@H]1C[C@H](N)[C@H](O)[C@H](C)O1 [daunorubicin] (10 µM)	-0.0163
CC(=O)S[C@@H]1CC2=CC(=O)CC[C@]2(C)[C@H]2CC[C@@]3(C)[C@@H](CC[C@@]34CCC(=O)O4)[C@H]12 [spironolactone] (10 µM)	0.291
COC1=C(OC)C(=O)C(CCCCCCCCCCO)=C(C)C1=O [idebenone] (10 µM)	-0.0056
CC(=O)OCC(=O)[C@@]1(O)CC[C@H]2[C@@H]3CCC4=CC(=O)CC[C@]4(C)[C@H]3C(=O)C[C@@]21C [cortisone-acetate] (10 µM)	-0.0698
CCc1ccc(C2=CC(C)(C)Sc3ccc(C#Cc4ccc(C(=O)O)cc4)cc32)cc1 (10 µM)	-0.0119
FC(F)(F)Oc1ccc2nc(-c3ccc(OCCOCCOc4ccc(-c5nc6ccc(OC(F)(F)F)cc6[nH]5)nc4)cn3)[nH]c2c1 (10 µM)	-0.247

Provide morphology score for all items below, preserving their order.
1. COc1cc(Nc2ncc(F)c(Nc3ccc4c(n3)NC(=O)C(C)(C)O4)n2)cc(OC)c1OC (10 µM)
2. Clc1ccc(CCCOCCCN2CCCCC2)cc1 [pitolisant] (10 µM)
3. CC(=O)OC[C@H](N)C(=O)O [O-acetyl-L-serine] (10 µM)
4. CCOC(=O)CCC(=O)O[C@H]1[C@H](O[C@@H]2[C@@H](C)[C@H](O[C@H]3C[C@@](C)(OC)[C@@H](O)[C@H](C)O3)[C@@H](C)C(=O)O[C@H](CC)[C@@](C)(O)[C@H](O)[C@@H](C)C(=O)[C@H](C)C[C@@]2(C)O)O[C@H](C)C[C@@H]1N(C)C [erythromycin-ethylsuccinate] (10 µM)

1. 0.09
2. 0.243
3. 0.0719
4. -0.215

* * *

System: Vero E6 infected with SARS-CoV-2
Experiment: inhibition of SARS-CoV-2 cytopathic effect; higher = more antiviral protection, active = above 15
Conditions: 10000 nM; 48 h
Exercise: state measured inhibition of SARS-CoV-2 cytopathic effect for each of the molecules provided.
Give bare numbers, in %.

Illustrative cases are given below, each with its answer.
Molecule	Endpoint result
CCN1CCN(C(=O)N[C@@H](C(=O)N[C@@H]2C(=O)N3[C@@H]2SC(C)(C)[C@@H]3C(=O)O)c2ccccc2)C(=O)C1=O	0.01
Cc1[nH]c2ccc(O)cc2c1CCN [2-methyl-5-hydroxytryptamine]	-2.37
O=C(Nc1ccccc1)N1CCC(Cc2cnc3ccccc3c2)CC1	-1.47
OCCOCCN1CCN(C(c2ccccc2)c2ccc(Cl)cc2)CC1 (centres undefined) [hydroxyzine]	-4.3
Cc1ccc(NC(=O)c2cccc(C(C)(C)C#N)c2)cc1Nc1ccc2ncn(C)c(=O)c2c1	-1.17

Provide inhibition of SARS-CoV-2 cytopathic effect for all items below, preserving their order.
1. CC(C)NC[C@@H](O)COc1ccc(CC(N)=O)cc1 (racemic) [atenolol-(+/-)]
2. FC(F)(F)C(F)(F)C(F)(F)C(F)(F)C(F)(F)C(F)(F)C(F)(F)C(F)(F)Br
3. CS(=O)(=O)N1CCc2c(-c3cnc(N)nc3)nc(N3CCOCC3)nc21
4. CCCCCCCCCCCCCCCCNc1ccc(C(=O)O)cc1

1: -0.8; 2: 0.45; 3: -8.89; 4: -2.46
